FYI, the data here is from patent US9409884B2.

# study-target: AMPK
# method: AMPK activation, enzyme-linked immunosorbent assay
# Type: biochemical
# test-conditions: Table 13, compounds of Table 6
pEC50: −log10 of the molar value.
pEC50 values by entry

// below: answered compounds
{"columns": ["smiles-code", "pEC50"],
 "data": [
  ["N#Cc1ccc(CN2CCC(NC(=O)c3cc4cc(NC(=O)c5ccc(C#N)cc5)ccc4o3)CC2)cc1", "6.00 to 7.00"],
  ["CS(=O)(=O)c1cccc(CN2CCN(C(=O)c3ccc4oc(C(=O)NC5CCN(Cc6ccc(-n7cccn7)cc6)CC5)cc4c3)CC2)c1", "> 7.00"],
  ["N#Cc1ccc(CN2CCC(NC(=O)c3cc4cc(C(=O)N5CCN(c6cc(C(F)(F)F)cc(C(F)(F)F)c6)CC5)ccc4o3)CC2)cc1", "5.00 to 6.00"],
  ["COc1ccc(CN2CCC(NC(=O)c3cc4cc(C(=O)N5CCC(Oc6ccc(S(C)(=O)=O)cc6)CC5)ccc4o3)CC2)cc1", "> 7.00"],
  ["N#Cc1ccc(CN2CCC(NC(=O)c3cc4cc(NC(=O)C5CCN(Cc6ccc(F)c(F)c6)CC5)ccc4o3)CC2)cc1", "6.00 to 7.00"]
]}

// pEC50 lookup, key: N#Cc1ccc(CN2CCC(NC(=O)c3cc4cc(C(=O)N5CCC(Oc6ccc(S(=O)(=O)C(F)(F)F)cc6)CC5)ccc4o3)CC2)cc1
> 7.00

Reported pEC50, compound N#Cc1ccc(CN2CCC(NC(=O)c3cc4cc(C(=O)N5CCN(c6ccc(C(F)(F)F)cc6)CC5)ccc4o3)CC2)cc1 : ____
> 7.00

Fill in: pEC50 of COc1ccc(CN2CCC(NC(=O)c3cc4cc(NC(=O)c5ccc(Oc6ccc(F)cc6)cc5)ccc4o3)CC2)cc1 is ___
6.00 to 7.00

Look at this compound and give its reported pEC50. COc1ccc(CN2CCC(NC(=O)c3cc4cc(C(=O)N5CCN(c6ccc(C(F)(F)F)cc6)CC5)ccc4o3)CC2)cc1
> 7.00

###

# study-target: AMPK
# method: AMPK activation, enzyme-linked immunosorbent assay
# Format: biochemical
# test-conditions: Table 9, compounds of Table 2
# Experimental: Compounds of Table 1 were assayed for their ability to activate AMPK using an enzyme-linked immunosorbent assay. Compounds of Table 2 were assayed for their ability to activate AMPK using an enzyme-linked immunosorbent assay. Compounds of Table 3 were assayed for their ability to activate AMPK using an enzyme-linked immunosorbent assay. Compounds of Table 4 were assayed for their ability to activate AMPK using an enzyme-linked immunosorbent assay. […]
pEC50: −log10 of the molar value.
property-name: pEC50

{"columns": ["smiles-code", "pEC50"],
 "data": [
  ["N#Cc1ccc(CN2CCC(NC(=O)c3ccc4[nH]c5c(c4c3)CN(S(=O)(=O)c3ccc(C(F)(F)F)cc3)CC5)CC2)cc1", "5.30 to 6.00"],
  ["O=C(NC1CCN(c2ccc(F)cc2)CC1)c1ccc2[nH]c3c(c2c1)CN(Cc1ccc(C(F)(F)F)cc1)CC3", "> 6.30"],
  ["N#Cc1ccc(CN2CCC(NC(=O)c3ccc4[nH]c5c(c4c3)CN(C(=O)OCc3ccccc3)CC5)CC2)cc1", "5.30 to 6.00"],
  ["O=C(NC1CCN(S(=O)(=O)c2cccc(C(F)(F)F)c2)CC1)c1ccc2[nH]c3c(c2c1)CN(Cc1ccc(C(F)(F)F)cc1)CC3", "5.30 to 6.00"],
  ["O=C(NC1CCN(S(=O)(=O)c2ccc(F)cc2)CC1)c1ccc2[nH]c3c(c2c1)CN(c1ccc(F)cc1)CC3", "4.30 to 5.00"],
  ["N#Cc1ccc(CN2CCC(NC(=O)c3ccc4[nH]c5c(c4c3)CN(S(=O)(=O)c3ccc(C#N)cc3)CC5)CC2)cc1", "4.30 to 5.00"],
  ["NC(=O)c1ccc(CN2CCC(NC(=O)c3ccc4[nH]c5c(c4c3)CN(Cc3ccc(C(N)=O)cc3)CC5)CC2)cc1", "< 4.00"],
  ["O=C(NC1CCN(C(=O)c2ccncc2)CC1)c1ccc2[nH]c3c(c2c1)CN(Cc1ccc(C(F)(F)F)cc1)CC3", "6.00 to 6.30"]
]}

Now let's try a different one.
# lookup: pEC50 of N#Cc1ccc(CN2CCC(NC(=O)c3ccc4[nH]c5c(c4c3)CN(Cc3ccccc3)CC5)CC2)cc1
5.30 to 6.00
